- experimental.target: T1, human CCR8 (human, UniProt P51685 1-355)
- T1 construct: whole, on cells; also called hCCR8
- T1 sequence (P51685 whole entry): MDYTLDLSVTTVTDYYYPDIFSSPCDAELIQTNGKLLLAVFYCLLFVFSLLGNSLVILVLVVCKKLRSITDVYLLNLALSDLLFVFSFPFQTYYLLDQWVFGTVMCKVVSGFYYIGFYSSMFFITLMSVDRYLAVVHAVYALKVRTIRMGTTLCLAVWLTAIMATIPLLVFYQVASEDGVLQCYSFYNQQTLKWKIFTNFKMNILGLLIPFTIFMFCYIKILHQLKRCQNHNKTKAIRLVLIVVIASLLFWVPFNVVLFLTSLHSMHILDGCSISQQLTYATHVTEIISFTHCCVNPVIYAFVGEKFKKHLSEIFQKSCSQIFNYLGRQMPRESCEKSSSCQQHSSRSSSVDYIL
- assay.procedure: FACS, competition with AF647-human CCL1 on CHO-K1-human CCR8 cells
observed.property: Max Inhibition (%)
Answer with a number only, understood to be in %.

Could you tell me which Max Inhibition (%) is on file for Hu348-6 (antibody, V domains shown, humanized IgG) VH: EVQLVESGGGLVQPGGSLKLSCATSGFSFSNYRMHWVRQASGKGLEWVGVITVKSDNYGANYAASVKGRFTISRDDSKSSVYLQMNSLKTEDTAVYYCSSLGRVAYWGQGTLVTVSS VL: DIQMTQSPSSVSASVGDRVTITCKASQNVDTNVVWYQQKPGQSPKALIYSASSRYSGVPDRFSGSGSGTDFTLTISSLQPEDFATYYCQQHNSFPLTFGQGTKLEIK ?
78.3

Now give it for Hu348-4 (antibody, human IgG1, V domains shown, humanized, human IgG1; also called Hu348-4 HuIgG1) VH: EVQLVESGGGLVQPGGSLKLSCATSGFSFSNYRMHWLRQASGKGLEWVGVITVKSDNYGANYAASVKGRFTISRDDSKSSVYLQMNSLKTEDTAVYYCSSLGRVAYWGQGTLVTVSS VL: DIQMTQSPSSVSASVGDRVTITCKASQNVDTNVVWYQQKPGQSPKALIYSASSRYSGVPSRFSGSGSGTDFTLTISSLQPEDFATYYCQQHNSFPLTFGQGTKLEIK too.
94.6

Now give it for Hu348-7 (antibody, V domains shown, humanized IgG) VH: EVQLVESGGGLVQPGGSLKLSCATSGFSFSNYRMHWLRQASGKGLEWVGRITVKSDNYGTAYAASVKGRFTISRDDSKSSVYLQMNSLKTEDTAVYYCSSLGRVAYWGQGTLVTVSS VL: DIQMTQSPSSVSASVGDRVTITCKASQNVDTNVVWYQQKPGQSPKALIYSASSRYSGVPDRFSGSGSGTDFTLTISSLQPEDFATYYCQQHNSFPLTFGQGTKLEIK too.
25.6
